Origin of values: patent US20050239784A1

Target: AKT3 (Homo sapiens, UniProt Q9Y243)
Sequence (Q9Y243 whole entry, species assumed): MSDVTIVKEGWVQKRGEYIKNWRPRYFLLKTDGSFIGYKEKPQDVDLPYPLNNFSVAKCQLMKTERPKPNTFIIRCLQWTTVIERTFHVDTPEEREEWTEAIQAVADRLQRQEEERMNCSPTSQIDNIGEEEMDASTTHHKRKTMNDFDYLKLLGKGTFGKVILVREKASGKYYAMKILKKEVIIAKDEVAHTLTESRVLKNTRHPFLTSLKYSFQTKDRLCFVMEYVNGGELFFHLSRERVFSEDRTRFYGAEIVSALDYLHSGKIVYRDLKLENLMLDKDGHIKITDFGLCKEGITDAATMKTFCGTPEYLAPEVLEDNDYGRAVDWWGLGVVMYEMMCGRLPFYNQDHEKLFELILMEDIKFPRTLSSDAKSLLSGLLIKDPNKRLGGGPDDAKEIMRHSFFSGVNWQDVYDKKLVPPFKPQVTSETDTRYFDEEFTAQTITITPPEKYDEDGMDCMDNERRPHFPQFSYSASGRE
Assay: biochemical
Conditions: read-out: AKT3 pep. (Ex. C.3): pIC50 values (converted)
Classify on IC50 using low interval (below 200 nM), middle interval (200 nM to below 300 nM), high interval (300 nM or more)

Example entries begin here.
{"Compound": "COc1cc(-c2nc3c(=O)n(C)c(=O)nc-3n(C(C)C)n2)cc(OC)c1OCCN1CCN(C(=O)OC(C)(C)C)CC1 [Compound 89]", "Assigned Category": "high interval"}
{"Compound": "COc1cc(-c2nc3c(=O)n(C)c(=O)nc-3n(C(C)C)n2)cc(OC)c1OCCN1CCN(C)CC1 [Compound 85]", "Assigned Category": "high interval"}
{"Compound": "COc1cc(-c2nc3c(=O)n(C)c(=O)nc-3n(C(C)C)n2)ccc1OCCN1CCCCC1 [Compound 78]", "Assigned Category": "middle interval"}
{"Compound": "COc1cc(-c2nc3c(=O)n(C)c(=O)nc-3n(C(C)C)n2)cc(OC)c1OCCN1CCCCC1 [Compound 77]", "Assigned Category": "middle interval"}
{"Compound": "CC(C)n1nc(-c2ccc(OCCNS(=O)(=O)N(C)C)cc2)nc2c(=O)n(C)c(=O)nc1-2 [Compound 109]", "Assigned Category": "low interval"}

In: Exam item: assign CC(C)n1nc(-c2ccc(OCCN3CCN(C(=O)OC(C)(C)C)CC3)cc2)nc2c(=O)n(C)c(=O)nc1-2 [Compound 80] to the correct category.
Out: high interval

In: Another compound to look at: COc1cc(-c2nc3c(=O)n(C)c(=O)nc-3n(C(C)C)n2)cc(OC)c1OS(=O)(=O)N(C)C [Compound 86]
Out: middle interval

In: Another compound to look at: CC(C)n1nc(-c2ccc(OCCCN3CCCCC3)cc2)nc2c(=O)n(C)c(=O)nc1-2 [Compound 90]
Out: low interval

In: Another compound to look at: CC(C)n1nc(-c2ccc(OCCCN3CCCCC3)cc2)nc2c(=O)n(C)c(=O)nc1-2 [Compound 81]
Out: middle interval
